Reference for the values: PubChem BioAssay AID624467

# target.desc: Trace amine-associated receptor 1 (Homo sapiens)
# measurement.notes: activators of TAAR1 calcium mobilization – Fluo-8 calcium fluorescence, CHO RD-HGA16 cells, primary screen (AID 624467)
# experimental.context: CHO RD-HGA16 TAAR1, Fluo-8 calcium fluorescence; at 3 µM; active compounds read high; vehicle wells 0%, saturating PEA agonist 100%
Among all 360,000 compounds or so, about 3,600 (1%) were called active. The full list was thinned out, with actives kept by preference.
Rule: activation of 6% or more gives 1; anything lower gives 0.

These recorded examples may help you get a feel for the data.
compound	assigned.category
Cc1nc(C(=O)Nc2ccc(Cl)cc2)sc1C1(C)CC(c2ccccc2)=NO1 (stereo not given)	0
COC(=O)c1ccc(CN2C(=O)[C@]3(OCCC=C[C@H]3C)c3c(Br)cccc32)cc1	0
O=C(O)CC(SCC(=O)Nc1ccc(Br)cc1)C(=O)O (stereo not given)	0
Cc1nc(C(=O)NCc2ccccc2)sc1C1(C)CC(c2cccnc2)=NO1 (stereo not given)	1

# evaluate next
In plain terms: is recorded activation at least 6% for Cc1[nH]c2ccccc2c1CC(=O)Nc1ccc(Nc2cccnc2)c(-c2cccc(Cl)c2)c1 ? 0

----------
Overview of reported activation across a group of compounds:
# target.desc: Trace amine-associated receptor 1 (Homo sapiens)
# measurement.notes: activators of TAAR1 calcium mobilization – Fluo-8 calcium fluorescence, CHO RD-HGA16 cells, primary screen (AID 624467)
# experimental.context: CHO RD-HGA16 TAAR1, Fluo-8 calcium fluorescence; at 3 µM; active compounds read high; vehicle wells 0%, saturating PEA agonist 100%
Hit rate of the full screen: of about 360,000 compounds, about 3,600 (1%) were called active. The full list was thinned out, with actives kept by preference.
Return type: number; implicit unit %.

O=C(OCCOc1ccccc1F)c1cc(S(=O)(=O)N2CCOCC2)ccc1F 3.93
CCCSc1nc2c(c(=O)n(C)c(=O)n2C)n1Cc1ccc(C)cc1 52.6
O=C1CC(C(F)(F)C(F)(F)C(F)(F)C(F)(F)F)=Nc2ccccc2N1 -0.77
CCOc1ccc(Cn2c(SCCCCC#N)nc3c2c(=O)n(C)c(=O)n3C)cc1OCC 17.1

Then there is this compound:
GET activation where system = Trace amine-associated receptor 1 (Homo sapiens) and item = C[C@@H]1ON(C)[C@H]2C[C@H]3c4cc(N5CCOCC5)ccc4CCN3C[C@@H]12 2

----------
Overview of reported activation across a group of compounds:
# target.desc: Trace amine-associated receptor 1 (Homo sapiens) (UniProt Q96RJ0)
# Sequence (Q96RJ0 whole entry, looked up): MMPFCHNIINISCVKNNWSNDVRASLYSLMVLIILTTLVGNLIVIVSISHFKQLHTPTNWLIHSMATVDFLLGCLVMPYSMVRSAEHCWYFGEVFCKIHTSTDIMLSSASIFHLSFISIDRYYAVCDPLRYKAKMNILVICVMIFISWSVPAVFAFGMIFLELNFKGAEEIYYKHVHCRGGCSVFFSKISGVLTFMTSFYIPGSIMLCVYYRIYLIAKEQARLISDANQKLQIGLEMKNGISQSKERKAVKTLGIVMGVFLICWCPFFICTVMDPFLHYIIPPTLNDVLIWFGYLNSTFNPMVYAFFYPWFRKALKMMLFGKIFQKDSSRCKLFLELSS
# measurement.notes: activators of TAAR1 calcium mobilization – Fluo-8 calcium fluorescence, CHO RD-HGA16 cells, primary screen (AID 624467)
# experimental.context: CHO RD-HGA16 TAAR1, Fluo-8 calcium fluorescence; at 3 µM; active compounds read high; vehicle wells 0%, saturating PEA agonist 100%
About 3,600 (1%) of roughly 360,000 compounds were called active. Only a selection was taken, and actives are over-represented in it overall.
Return type: number; implicit unit %.

# example entries with known answers
compound	unit.spec	activation
CC(=O)c1c(C)[nH]c(C(=O)OCC(=O)Nc2c(C)cccc2C)c1C	%	18.7
Cc1ccc(C(=O)CCC(=O)N(C)CC(=O)Nc2c(Cl)cccc2Cl)cc1	%	-0.39
CCN(c1ccccc1)S(=O)(=O)c1cccc(C(=O)NCc2ccccc2CN2CCOCC2)c1	%	5.65
CCC(C(=O)OCC(=O)Nc1c(Cl)cc(Cl)cc1Cl)c1ccccc1 (stereo unspecified)	%	8.86

Give recorded activation. O=C1CCC/C=C/C[C@@H](CC(=O)N(CCO)Cc2ccccc2)C(=O)NC[C@H](c2ccccc2)O1 5.38

Give recorded activation. O=C(Nc1c(Cl)c(C2CC2)nn1-c1ccccc1)C(Cl)(Cl)Cl 1.51
